Origin of values: ChEMBL document CHEMBL1122876

Test system: Escherichia coli
Assay: Inhibition of growth of methotrexate-resistant (MB1428) strain of Escherichia coli cells.
Format: functional
Returns yes if the recorded Log 1/C is greater than or equal to 4, and no otherwise.

For orientation, consider the following solved cases.
{"compound": "CCCCCCOc1ccc(Cc2cnc(N)nc2N)cc1", "class_name": "yes"}
{"compound": "CCCCCCCCOc1cccc(Cc2cnc(N)nc2N)c1", "class_name": "yes"}
{"compound": "Nc1ncc(Cc2ccc([N+](=O)[O-])cc2)c(N)n1", "class_name": "no"}
{"compound": "COc1cc(Cc2cnc(N)nc2N)cc(OC)c1SC", "class_name": "yes"}
{"compound": "CC1(C)N=C(N)N=C(N)N1c1ccc(Cl)cc1", "class_name": "no"}
{"compound": "CC(=O)Nc1ccc(Cc2cnc(N)nc2N)cc1", "class_name": "no"}
{"compound": "CCc1nc(N)nc(N)c1-c1ccc(Cl)cc1", "class_name": "no"}
{"compound": "CN(Cc1cnc2nc(N)nc(N)c2n1)c1ccc(C(=O)N[C@@H](CCC(=O)O)C(=O)O)cc1 [METHOTREXATE]", "class_name": "no"}
{"compound": "Cc1cccc(Cc2cnc(N)nc2N)c1", "class_name": "no"}
{"compound": "Nc1ncc(Cc2cccc(Cl)c2)c(N)n1", "class_name": "no"}

Record COCCOc1c(OC)cc(Cc2cnc(N)nc2N)cc1OC ; criterion: Log 1/C no lower than 4. Met?
yes

Textbook exercise: given the entry C=C(C)c1c(OC)cc(Cc2cnc(N)nc2N)cc1OC , state whether its Log 1/C is greater than or equal to 4.
yes

Entry CC1(C)N=C(N)N=C(N)N1c1cccc(OCCOc2cccc(C(F)(F)F)c2)c1 : is its Log 1/C no less than 4?
yes

Dear colleague, could you confirm whether COCc1cccc(Cc2cnc(N)nc2N)c1 has Log 1/C at or above 4?
no

Hello, I need to know if COCCOc1ccc(Cc2cnc(N)nc2N)cc1 has measured Log 1/C not below 4. Thanks!
no

Test whether the compound CCCCCCOc1cccc(Cc2cnc(N)nc2N)c1 records Log 1/C of 4 or higher.
yes

Does COc1ccc(Cc2cnc(N)nc2N)cc1OC have a reported Log 1/C of at least 4?
yes

Would you say Cc1nc(N)nc(N)c1-c1ccc(Cl)c(Cl)c1 shows Log 1/C at minimum 4?
yes

Entry COc1cc(Cc2cnc(N)nc2N)cc(OC)c1 : is its Log 1/C no less than 4?
yes

// inclusive: Log 1/C at least 4? input: Nc1ncc(Cc2ccccc2)c(N)n1
no

Confirm if Log 1/C reported for the compound COc1cc(Cc2cnc(N)nc2N)cc(OC)c1Br is 4 or above.
yes

Is Log 1/C at least 4? Consider COCCOc1cccc(Cc2cnc(N)nc2N)c1
no

Quick check: does CN(C)c1ccc(Cc2cnc(N)nc2N)cc1 have Log 1/C greater than or equal to 4?
no

Please tell me: is the compound Nc1ncc(Cc2ccc(Br)cc2)c(N)n1 at or over 4 in terms of Log 1/C?
no

* * *

Test system: Escherichia coli
Test: Inhibition of growth of methotrexate-resistant (MB1428) strain of Escherichia coli cells.
Assay type: functional
Kindly return yes if reported Log 1/C is no lower than 5; return no if it is lower.

{"mol_smiles": "COc1cc(Cc2cnc(N)nc2N)cc(OC)c1OC", "class_name": "yes"}

Assess whether reported Log 1/C for COc1ccc(OC)c(Cc2cnc3nc(N)nc(N)c3c2C)c1 sits at 5 or higher.
no

Is reported Log 1/C greater than or equal to 5 here: CCCCCCCOc1cccc(Cc2cnc(N)nc2N)c1
no

Check the entry CC1(C)N=C(N)N=C(N)N1c1cccc(S(=O)(=O)F)c1 : does Log 1/C equal or exceed 5?
no

Dear colleague, could you confirm whether CS(=O)(=O)Oc1cccc(Cc2cnc(N)nc2N)c1 has Log 1/C at or above 5?
no

# check: Log 1/C of Nc1ncc(Cc2cccc(O)c2)c(N)n1 is greater than or equal to 5
no
